Tested System: Mos1 transposase (Drosophila mauritiana, UniProt Q7JQ07, T216A)
Construct: Mos1 transposase catalytic domain (crystal); Mos1 transposase and paired-end complex (thermal denaturation and activity assays)
Sequence (Q7JQ07 whole entry T216A, the tested form may be a part): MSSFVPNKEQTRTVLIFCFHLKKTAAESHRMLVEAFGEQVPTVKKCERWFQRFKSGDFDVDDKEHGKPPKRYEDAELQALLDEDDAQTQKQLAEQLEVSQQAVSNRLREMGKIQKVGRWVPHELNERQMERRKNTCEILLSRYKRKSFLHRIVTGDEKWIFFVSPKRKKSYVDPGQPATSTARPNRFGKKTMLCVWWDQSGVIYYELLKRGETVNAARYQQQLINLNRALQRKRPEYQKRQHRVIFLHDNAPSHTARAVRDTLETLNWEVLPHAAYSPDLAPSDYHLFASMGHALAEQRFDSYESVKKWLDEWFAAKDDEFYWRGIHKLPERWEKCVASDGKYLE
Experimental Details: X-ray co-crystal structures at […] Å (soak); thermal denaturation shift; strand transfer assay IC50 […]; plasmid cleavage assay IC50 […]
pIC50: −log10 of the molar value.

Chemical Smiles	pIC50
Cc1nnc(C(=O)NC(C)(C)c2nc(C(=O)NCc3ccc(F)cc3)c(O)c(=O)n2C)o1	~5.70
